system: BxPC-3; experiment: In vitro cytotoxicity (CellTiter Glo, 5 days), BxPC-3; type: cell-based; settings: Homo sapiens, BXPC-3, 120 h, controls (FITC-ADC 8 DAR 6.36; FITC-ADC 4 DAR 3.39; free belotecan), FITC-ADC 4 value marked *: likely not accurate due to curve shape, read-out: IC50 - drug concentration
measurement type: IC50 (nM)
Give the value in nM but do not write nM after it.

Input line: Which IC50 value is on record for CC[C@@]1(O)C(=O)OCc2c1cc1n(c2=O)Cc2c-1nc1ccccc1c2CCNC(C)C ?
Output line: 2.62

---

test system: BxPC-3; assay: In vitro cytotoxicity (CellTiter Glo, 5 days), BxPC-3; assay type: cell-based; conditions: Homo sapiens, BXPC-3, 120 h, controls (FITC-ADC 8 DAR 6.36; FITC-ADC 4 DAR 3.39; free belotecan), FITC-ADC 4 value marked *: likely not accurate due to curve shape, read-out: IC50 - mAb concentration
measurement type: pIC50
In textbook form, pIC50 equals minus log to base ten of the concentration in mol/L.

Input line: Which pIC50 value is on record for CC[C@@]1(O)C(=O)OCc2c1cc1n(c2=O)Cc2c-1nc1ccccc1c2CCNC(C)C ?
Output line: 8.58

---

test system: HPAF-II; assay: In vitro cytotoxicity (CellTiter Glo, 5 days), HPAF-II; assay type: cell-based; details: Homo sapiens, 120 h, controls (FITC-ADC 8 DAR 6.36; FITC-ADC 4 DAR 3.39; free belotecan), read-out: IC50 - mAb concentration
measurement type: pIC50
In textbook form, pIC50 equals minus log to base ten of the concentration in mol/L.

Input line: Which pIC50 value is on record for CC[C@@]1(O)C(=O)OCc2c1cc1n(c2=O)Cc2c-1nc1ccccc1c2CCNC(C)C ?
Output line: 8.52

---

Tested on: A431
Test: In vitro cytotoxicity (CellTiter Glo, 5 days), A431
Type: cell-based
Conditions: Homo sapiens, A-431, 120 h, controls (FITC-ADC 8 DAR 6.36; FITC-ADC 4 DAR 3.39; free belotecan), FITC-ADC 4 value marked *: likely not accurate due to curve shape, read-out: IC50 - mAb concentration
Protocol: Various cancer cell lines were plated in 96-well plates (Costar 3610) at a density of 1.5×10^3 cells/well in 100 μL of growth media. The next day, cells were treated with […] of test compounds serially-diluted in media. After incubation at 37° C. with […] for 5 days, viability was measured using the Promega CellTiter Glo® reagent according to the manufacturer's recommendations. GI50 curves were calculated in GraphPad Prism normalized to the payload concentration.
measurement type: pIC50
In textbook form, pIC50 equals minus log to base ten of the concentration in mol/L.

Input line: Give A431 pIC50 for CC[C@@]1(O)C(=O)OCc2c1cc1n(c2=O)Cc2c-1nc1ccccc1c2CCNC(C)C [belotecan]
Output line: 8.63

---

test system: A431; assay: In vitro cytotoxicity (CellTiter Glo, 5 days), A431; type: cell-based; conditions: controls (FITC-ADC 8 DAR 6.36; FITC-ADC 4 DAR 3.39; free belotecan), read-out: IC50 - drug concentration
measurement type: pIC50
In textbook form, pIC50 equals minus log to base ten of the concentration in mol/L.

Input line: Which pIC50 value is on record for CC[C@@]1(O)C(=O)OCc2c1cc1n(c2=O)Cc2c-1nc1ccccc1c2CCNC(C)C ?
Output line: 8.58
